Origin of values: patent US20260108546A1

# Emax annotations
Molecular target: hGIP-R (Homo sapiens, UniProt P48546)
Construct: expressed in transfected cells; host or cells: HEK-293 clonal cell lines
Sequence (P48546 22-466): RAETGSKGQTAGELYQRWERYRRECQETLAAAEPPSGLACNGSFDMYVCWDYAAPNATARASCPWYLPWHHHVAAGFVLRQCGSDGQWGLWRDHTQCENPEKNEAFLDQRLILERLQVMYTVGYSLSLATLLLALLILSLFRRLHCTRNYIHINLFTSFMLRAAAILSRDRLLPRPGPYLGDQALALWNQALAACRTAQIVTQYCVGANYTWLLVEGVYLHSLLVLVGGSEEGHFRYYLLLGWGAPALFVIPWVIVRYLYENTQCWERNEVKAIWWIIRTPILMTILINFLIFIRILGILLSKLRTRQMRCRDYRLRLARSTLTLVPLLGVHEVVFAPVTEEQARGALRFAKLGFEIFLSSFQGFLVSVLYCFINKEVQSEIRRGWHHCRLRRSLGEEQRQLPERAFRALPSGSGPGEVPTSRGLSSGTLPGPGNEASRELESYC
Assay: Functional hGIP-R Assay (cAMP formation, HTRF)
Assay type: cell-based
Settings: cAMP efficacy; percent of maximal response to GIP(1-42)OH; 37° C., 0.1% bovine casein; arithmetic mean ± SEM
Reply with just the number (in %).

Some compounds with known Emax results, for comparison:
CC(C)(Cn1cc(C(F)(F)F)cn1)NC(=O)[C@@H](Cc1cnc2ncccn12)NC(=O)C1CC1c1ccc(-c2cnc3nn(C(F)F)cc3c2)cn1 (single isomer, unassigned; isomer 2)	102
Cn1cc2cc(-c3ccc([C@H]4C[C@@]45CCN([C@H](Cc4cnn(C(F)F)c4)C(=O)NC(C)(C)Cn4nc(C(F)(F)F)cc4-c4cc(F)c6nccn6c4)C5=O)cc3)cnc2n1	57.9

Now consider the entry below.
Query string: Name the recorded Emax of CN(C(=O)[C@H]1C[C@@H]1c1ccc(-c2cnc3nn(C(F)F)cc3c2)cc1)[C@H](Cc1cnn(C)c1)C(=O)NC(C)(C)Cn1nc(C(F)(F)F)cc1-c1ccc(=O)n(C)c1 , assay system hGIP-R (Homo sapiens, UniProt P48546).
Result string: 116

---

# EC50 annotations
Target: hGIP-R (Homo sapiens, UniProt P48546)
Construct: expressed in transfected cells; host or cells: HEK-293 clonal cell lines
Test: Functional hGIP-R Assay (cAMP formation, HTRF)
Format: cell-based
Settings: cAMP potency; HEK-293 cells expressing hGIP-R; incubated at 37° C. in the presence of 0.1% bovine casein; geometric mean; read-out: Human GIP-R EC50, nM (SEM, n)
Reply with just the number (in nM).

Some molecules with known EC50 results, for comparison:
Cn1cc(C[C@@H](NC(=O)C2CC2c2ccc(-c3cnc4nn(C)cc4c3)s2)C(=O)NC(C)(C)Cn2nc(C(F)(F)F)cc2-c2ccc(=O)n(C)c2)cn1 (single isomer, unassigned; isomer 2)	189
CC(C)(Cn1nc(C(F)(F)F)cc1-c1cn[nH]n1)NC(=O)[C@@H](Cc1cnc2ncccn12)NC(=O)[C@H]1C[C@@H]1c1ccc(-c2cnc3nc(C(F)(F)F)cn3c2)cc1	0.904
Cc1cn2cc(-c3ccc([C@H]4C[C@@]45CCN([C@H](Cc4cnn(C(F)F)c4)C(=O)NC(C)(C)Cn4nc(C(F)(F)F)cc4-c4cc(F)c(=O)n(C)c4)C5=O)c(F)c3)cnc2n1	3.47
[2H]C([2H])([2H])N(C(=O)[C@H]1C[C@@H]1c1ccc(-c2cnc3nn(C)cc3c2)nc1C(F)F)[C@@H](Cc1cnn(C(F)F)c1)C(=O)NC(C)(C)Cn1nc(C(F)(F)F)cc1-c1cc(F)c(=O)n(C)c1	99.2

Query string: Give me measured EC50, please, for this molecule: Cn1cc2cc(-c3ccc(C4CC4C(=O)N[C@H](Cc4cnc5ncccn45)C(=O)NC(C)(C)Cn4cc(C(F)(F)F)cn4)c(F)c3)cnc2n1 (single isomer, unassigned; isomer 2)
Result string: 74.8

---

# Emax annotations
Target: hGIP-R (Homo sapiens, UniProt P48546)
Construct: expressed in transfected cells; host or cells: HEK-293 clonal cell lines
Assay: Functional hGIP-R Assay (cAMP formation, HTRF)
Format: cell-based
Conditions: cAMP efficacy; percent of maximal response to GIP(1-42)OH; 37° C., 0.1% bovine casein; arithmetic mean ± SEM
Reply with just the number (in %).

Some molecules with known Emax results, for comparison:
Cc1ncc(-c2cc(C(F)(F)F)nn2CC(C)(C)NC(=O)[C@@H](Cc2cnn(C(F)F)c2)N2CC[C@@]3(C[C@@H]3c3ccc(-c4cnc5nn(C6CC6)cc5c4)nc3C)C2=O)cn1	75.9
[2H]C([2H])([2H])n1cc(C[C@H](C(=O)NC(C)(C)Cn2nc(C(F)(F)F)cc2-c2ccc(C(C)(C)O)nc2)N2CC[C@@]3(C[C@@H]3c3ccc(-c4cnc5nn(CC)cc5c4)nc3C)C2=O)cn1	61
COCc1cn2cc(-c3ccc([C@H]4C[C@@]45CCN([C@H](Cc4cnn(C(F)F)c4)C(=O)NC(C)(C)Cn4nc(C(F)(F)F)cc4-c4ccnc(C(C)(C)O)c4)C5=O)c(C)n3)cnc2n1	119
[2H]C([2H])([2H])n1cc(C[C@H](C(=O)NC(C)(C)Cn2nc(C(F)(F)F)cc2-c2ccc(C(C)(C)O)nc2)N2CC[C@@]3(C[C@@H]3c3ccc(-c4cnc5nc(COC)cn5c4)nc3C3CC3)C2=O)cn1	129

Now consider the entry below.
Query string: Name the recorded Emax of COCc1cn2cc(-c3ccc([C@H]4C[C@@]45CCN([C@H](Cc4cnn(C(F)F)c4)C(=O)NC(C)(C)Cn4nc(C(F)(F)F)cc4-c4ccc(C(C)(C)O)nc4)C5=O)c(C)n3)cnc2n1 , assay system hGIP-R (Homo sapiens, UniProt P48546).
Result string: 110
